- Tested on: α-smooth muscle actin (aSMA) positive LL29 cells
- assay_comment: Inhibition of the fibrotic process: αSMA staining in TGF-β1 treated LL29 fibroblasts from IPF patients
- stated_conditions: Homo sapiens, Fibroblast, 96 h
reported_metric: log10 EC50 (log10 of the value in µM)
Use the decimal logarithm of EC50 (µM).

Give log10 EC50 for the following molecule: `Cn1cncc1-c1ccc2cnc(NC(=O)c3ccc4c(c3)CNC4)nc2c1` 0.52

Give log10 EC50 for the following molecule: `CN1CCN(c2cc(C(=O)Nc3cc4cc(-c5cnc(N)s5)cnc4cn3)ccn2)CC1` 0.39

Give log10 EC50 for the following molecule: `Cn1cncc1-c1cc2cc(NC(=O)c3ccc4c(c3)CNC4)ncc2cn1` 0.49

Give log10 EC50 for the following molecule: `CN1CCN(Cc2cccc(C(=O)Nc3cc4cc(-c5cnn(C)c5)cnc4cn3)c2)CC1` 0.60

Give log10 EC50 for the following molecule: `Cn1cc(-c2cnc3cnc(NC(=O)C4CCNCC4)cc3c2)cn1` 0.73

Give log10 EC50 for the following molecule: `Cc1nnc(-c2ccc3cnc(NC(=O)C4CCN(C(=O)c5ccccc5)CC4)nc3c2)s1` 0.25

Give log10 EC50 for the following molecule: `Cn1cc(-c2cc3cc(NC(=O)C4CCN(S(C)(=O)=O)CC4)ncc3cn2)cn1` -1.60

Give log10 EC50 for the following molecule: `CN(CC(=O)Nc1cc2cc(-c3cnn(C)c3)ncc2cn1)C1CCC1` -0.22

Give log10 EC50 for the following molecule: `O=C(Nc1cc2nc(-c3cncc(NCC4(F)CNC4)n3)ccc2cn1)C1CC1` 0.91

Give log10 EC50 for the following molecule: CC(C(=O)Nc1cc2cc(-c3cnn(C)c3)ncc2cn1)N1CCCCC1 (centres unmarked) 0.03

Give log10 EC50 for the following molecule: `Cn1cc(-c2cc3cc(NC(=O)C4CCN(Cc5ncccn5)CC4)ncc3cn2)cn1` -0.83

Give log10 EC50 for the following molecule: `CN(C)[C@H]1CC[C@H](C(=O)Nc2ncc3ccc(-c4cncs4)cc3n2)CC1` 0.42
